target: GST-Hu-p50 (Homo sapiens, UniProt P19838 7-356); assay: protein-binding microarray (PBM); PBM: ~300 nM protein, 6 mM HEPES pH 7.8, 80 mM KCl, 0.5 mM EDTA, 0.5 mM EGTA, 6% glycerol, 35 ng/ul poly-dIdC, 1% milk, 1 h, room temperature; high values mean tight binding; details: dsDNA, one strand shown
Sequence (P19838 7-356): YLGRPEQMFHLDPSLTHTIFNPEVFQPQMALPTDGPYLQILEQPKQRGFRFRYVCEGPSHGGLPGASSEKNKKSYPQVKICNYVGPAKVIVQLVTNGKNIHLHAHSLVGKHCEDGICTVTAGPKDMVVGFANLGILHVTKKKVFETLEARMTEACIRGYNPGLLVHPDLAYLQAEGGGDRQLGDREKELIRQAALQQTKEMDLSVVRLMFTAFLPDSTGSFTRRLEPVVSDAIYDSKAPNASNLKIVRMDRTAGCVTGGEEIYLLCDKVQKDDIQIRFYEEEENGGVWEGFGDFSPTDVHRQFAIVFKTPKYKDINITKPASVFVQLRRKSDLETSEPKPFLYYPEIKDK
Note to self: class labels come from recorded binding signal, ranges listed here: one (below 5 z-score), two (5 z-score to below 6 z-score), three (6 z-score or more)

See these solved cases before continuing.
* CCGATTAACATCAAAAACCCCCCTGATGTTAATCGGGTCTTGATTCGCTTGACGCTGCTG | three
* CCGATTAACATCAGGAGACCCCCTGATGTTAATCGGGTCTTGATTCGCTTGACGCTGCTG | one
* CCGATTAACATCAACGGTGGGAATGATGTTAATCGGGTCTTGATTCGCTTGACGCTGCTG | one
* CCGATTAACATCAGAAATTACCCTGATGTTAATCGGGTCTTGATTCGCTTGACGCTGCTG | one
* CCGATTAACATCAGAGAAGCCCCTGATGTTAATCGGGTCTTGATTCGCTTGACGCTGCTG | one
* CCGATTAACATCAGGAATCCCCCTGATGTTAATCGGGTCTTGATTCGCTTGACGCTGCTG | three
* CCGATTAACATCACGGAAATACCTGATGTTAATCGGGTCTTGATTCGCTTGACGCTGCTG | one
* CCGATTAACATCATTAGGGGAAGTGATGTTAATCGGGTCTTGATTCGCTTGACGCTGCTG | two
* CCGATTAACATCAGGGGAAAACCTGATGTTAATCGGGTCTTGATTCGCTTGACGCTGCTG | three
* CCGATTAACATCAAAAAAAACCCTGATGTTAATCGGGTCTTGATTCGCTTGACGCTGCTG | two

Now look at this entry.
Input line: Which binding signal band matches `CCGATTAACATCAGGTGTTTCCATGATGTTAATCGGGTCTTGATTCGCTTGACGCTGCTG` ?
Output line: one

---

Target: GST-Co-NF-kB (Capsaspora owczarzaki, UniProt F1ARL5 200-546)
Sequence: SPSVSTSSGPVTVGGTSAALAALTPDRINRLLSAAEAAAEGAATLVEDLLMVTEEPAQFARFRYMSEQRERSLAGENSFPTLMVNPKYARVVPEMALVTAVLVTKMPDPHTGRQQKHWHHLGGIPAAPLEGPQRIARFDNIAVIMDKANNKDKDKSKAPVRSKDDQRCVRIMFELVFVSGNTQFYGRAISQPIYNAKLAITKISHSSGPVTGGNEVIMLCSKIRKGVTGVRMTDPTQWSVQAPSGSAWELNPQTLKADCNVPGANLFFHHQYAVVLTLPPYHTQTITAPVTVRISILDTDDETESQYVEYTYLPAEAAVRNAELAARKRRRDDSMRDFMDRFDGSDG
Assay: protein-binding microarray (PBM); PBM: ~300 nM protein, 6 mM HEPES pH 7.8, 80 mM KCl, 0.5 mM EDTA, 0.5 mM EGTA, 6% glycerol, 35 ng/ul poly-dIdC, 1% milk, 1 h, room temperature; high values mean tight binding
Conditions: dsDNA, one strand shown
Note to self: class labels come from recorded binding signal, ranges listed here: low = under 2 z-score, mid = from 2 z-score up to 3 z-score, high = 3 z-score and over

See these solved cases before continuing.
• CCGATTAACATCACGGGAACCCCTGATGTTAATCGGGTCTTGATTCGCTTGACGCTGCTG = low
• CCGATTAACATCATTTCCCAAAATGATGTTAATCGGGTCTTGATTCGCTTGACGCTGCTG = low
• CCGATTAACATCAATCCTCCCCCTGATGTTAATCGGGTCTTGATTCGCTTGACGCTGCTG = high
• CCGATTAACATCAAAAGGGAATTTGATGTTAATCGGGTCTTGATTCGCTTGACGCTGCTG = low
• CCGATTAACATCAAGGGGAGTCCTGATGTTAATCGGGTCTTGATTCGCTTGACGCTGCTG = mid
• CCGATTAACATCAGGGAACTACATGATGTTAATCGGGTCTTGATTCGCTTGACGCTGCTG = low
• CCGATTAACATCAGGAGATTCCCTGATGTTAATCGGGTCTTGATTCGCTTGACGCTGCTG = mid
• CCGATTAACATCAATACTTCCCCTGATGTTAATCGGGTCTTGATTCGCTTGACGCTGCTG = high

Now look at this entry.
Input line: Which binding signal band matches `CCGATTAACATCAAAAATTGCCCTGATGTTAATCGGGTCTTGATTCGCTTGACGCTGCTG` ?
Output line: low

---

target: GST-Hu-p50 (Homo sapiens, UniProt P19838 7-356); assay: protein-binding microarray (PBM); PBM: ~300 nM protein, 6 mM HEPES pH 7.8, 80 mM KCl, 0.5 mM EDTA, 0.5 mM EGTA, 6% glycerol, 35 ng/ul poly-dIdC, 1% milk, 1 h, room temperature; high values mean tight binding; settings: dsDNA, one strand shown
Tag: 1 if measured binding signal is not below 5 z-score, -1 if it is.

- CCGATTAACATCAGGAGTTCCCATGATGTTAATCGGGTCTTGATTCGCTTGACGCTGCTG: -1
- CCGATTAACATCAAAAACTCCCTTGATGTTAATCGGGTCTTGATTCGCTTGACGCTGCTG: 1
- CCGATTAACATCAATACTTCCCCTGATGTTAATCGGGTCTTGATTCGCTTGACGCTGCTG: 1
- CCGATTAACATCAGAATACCCCCTGATGTTAATCGGGTCTTGATTCGCTTGACGCTGCTG: 1
- CCGATTAACATCAAAAAATTTTCTGATGTTAATCGGGTCTTGATTCGCTTGACGCTGCTG: -1
- CCGATTAACATCACGGTTATTCCTGATGTTAATCGGGTCTTGATTCGCTTGACGCTGCTG: -1
- CCGATTAACATCAGAATTCTCCCTGATGTTAATCGGGTCTTGATTCGCTTGACGCTGCTG: -1
- CCGATTAACATCAATCACCCCCCTGATGTTAATCGGGTCTTGATTCGCTTGACGCTGCTG: -1
- CCGATTAACATCAGGGGCTTTTATGATGTTAATCGGGTCTTGATTCGCTTGACGCTGCTG: 1
- CCGATTAACATCAAATCCCCCCCTGATGTTAATCGGGTCTTGATTCGCTTGACGCTGCTG: 1

Input line: Could you please find out whether `CCGATTAACATCAGGCCTTTCCCTGATGTTAATCGGGTCTTGATTCGCTTGACGCTGCTG` has binding signal that meets 5 z-score or exceeds it?
Output line: -1

Input line: Could you please find out whether `CCGATTAACATCAGGGGGGACTATGATGTTAATCGGGTCTTGATTCGCTTGACGCTGCTG` has binding signal that meets 5 z-score or exceeds it?
Output line: -1

---

Target: GST-Dm-Relish (Drosophila melanogaster, UniProt Q94527 99-473)
Sequence: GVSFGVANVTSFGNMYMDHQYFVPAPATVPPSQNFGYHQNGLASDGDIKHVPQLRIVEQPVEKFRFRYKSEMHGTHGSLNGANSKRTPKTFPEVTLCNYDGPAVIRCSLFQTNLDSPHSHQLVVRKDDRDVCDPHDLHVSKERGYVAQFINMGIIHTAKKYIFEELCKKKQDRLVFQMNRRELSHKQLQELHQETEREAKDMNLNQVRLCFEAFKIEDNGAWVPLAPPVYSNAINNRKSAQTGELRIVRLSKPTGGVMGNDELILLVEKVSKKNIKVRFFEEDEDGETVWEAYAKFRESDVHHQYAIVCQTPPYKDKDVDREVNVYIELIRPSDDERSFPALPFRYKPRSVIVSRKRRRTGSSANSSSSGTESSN
Experiment: protein-binding microarray (PBM); PBM: ~300 nM protein, 6 mM HEPES pH 7.8, 80 mM KCl, 0.5 mM EDTA, 0.5 mM EGTA, 6% glycerol, 35 ng/ul poly-dIdC, 1% milk, 1 h, room temperature; Ap Aiptasia and Nv Nematostella (sea anemones) / Co Capsaspora / Aq Amphimedon (sponge) / Dm Drosophila / Hu human; RHD is the Rel homology domain; high values mean tight binding
Settings: dsDNA, one strand shown
Result type: binding signal
// return the numeric value with its unit appended

Worked cases, binding signal given:
* CCGATTAACATCAACATTTCCCCTGATGTTAATCGGGTCTTGATTCGCTTGACGCTGCTG | 3.46 z-score
* CCGATTAACATCAGGGGACTCACTGATGTTAATCGGGTCTTGATTCGCTTGACGCTGCTG | 8.85 z-score
* CCGATTAACATCAGGGAATCACCTGATGTTAATCGGGTCTTGATTCGCTTGACGCTGCTG | 10.3 z-score
* CCGATTAACATCAAAAAATTACCTGATGTTAATCGGGTCTTGATTCGCTTGACGCTGCTG | 6.23 z-score

Please examine the following record next.
Input line: Endpoint output: binding signal of `CCGATTAACATCAAACCCCCCCGTGATGTTAATCGGGTCTTGATTCGCTTGACGCTGCTG` . Value?
Output line: 7 z-score
